Experiment: Pharmacokinetic clearance in intravenously dosed rats
Assay type: in vivo
Details: male, Sprague-Dawley, rat, whole blood, iv, 0.5 mg/kg, i.v. 0.5 mg/kg, Discrete - C (20% PEG 300, 10% Solutol HS15, PBS)
Experimental: Sprague-Daley rats were administered sGC activators intravenously to assess the systemic clearance rates of the compounds from blood by non-compartmental analysis. Compounds with high clearance rates may be less prone to exert unwanted systemic (non-local) pharmocoligcal effects, which may be a benefical property for a compound intended to be dosed via topical ocular administration with the aim of exerting a pharmacological reponse locally in the eye. […]

molecule | clearance
CCc1cc(NC2CCc3cccc(-c4cccc(-n5ncc(C(=O)O)c5OC)c4)c32)ccc1C1CCN(C(=O)[C@H](C)O)CC1 (single isomer, unassigned; (+)) [Example 4A] | > 100 mL/min/kg

###

assay: Pharmacokinetic clearance in intravenously dosed rats; assay type: in vivo; conditions: male, Sprague-Dawley, rat, whole blood, iv, 0.5 mg/kg, i.v. 0.5 mg/kg, Discrete - B (20% PEG 300, 1 eq NaOH, 10% Solutol HS15, PBS)
quantityKind: clearance

molecule | observed
CCc1cc(N[C@H]2CCc3cccc(-c4cccc(-n5ncc(C(=O)O)c5OC)c4)c32)ccc1C1CCN(C(=O)C2CC2)CC1 | > 100 mL/min/kg

###

EC50 for assorted compounds
target: soluble guanylate cyclase (GUCYA3/GUCYB3) overexpressed in CHO cells (Homo sapiens, UniProt Q02108+Q02153); construct: expressed in transfected cells; experiment: CHO cellular assay (cGMP production, HTRF); format: cell-based; conditions: CHO cellular assay, as repeated in Table 2; read-out: EC50 from biological Example #1
Sequence (Q02108 whole entry partner): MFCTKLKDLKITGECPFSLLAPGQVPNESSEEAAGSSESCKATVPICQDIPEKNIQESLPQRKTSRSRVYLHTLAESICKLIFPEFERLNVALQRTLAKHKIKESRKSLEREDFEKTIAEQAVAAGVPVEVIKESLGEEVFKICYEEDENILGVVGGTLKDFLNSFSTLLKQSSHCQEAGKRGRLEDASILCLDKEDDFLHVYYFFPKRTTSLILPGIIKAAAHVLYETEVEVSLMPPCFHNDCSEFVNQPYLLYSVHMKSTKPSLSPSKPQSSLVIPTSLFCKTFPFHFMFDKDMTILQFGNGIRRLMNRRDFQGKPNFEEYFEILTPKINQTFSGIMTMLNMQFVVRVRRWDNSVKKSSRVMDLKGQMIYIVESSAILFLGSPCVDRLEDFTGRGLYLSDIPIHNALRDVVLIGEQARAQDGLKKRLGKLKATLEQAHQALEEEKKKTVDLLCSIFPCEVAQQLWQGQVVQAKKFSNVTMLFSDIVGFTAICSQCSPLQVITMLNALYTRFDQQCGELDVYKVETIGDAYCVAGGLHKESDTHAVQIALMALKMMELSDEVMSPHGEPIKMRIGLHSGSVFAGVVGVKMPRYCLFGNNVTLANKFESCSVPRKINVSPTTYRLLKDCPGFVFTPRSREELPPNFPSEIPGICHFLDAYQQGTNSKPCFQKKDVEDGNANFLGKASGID
Sequence (Q02153 whole entry): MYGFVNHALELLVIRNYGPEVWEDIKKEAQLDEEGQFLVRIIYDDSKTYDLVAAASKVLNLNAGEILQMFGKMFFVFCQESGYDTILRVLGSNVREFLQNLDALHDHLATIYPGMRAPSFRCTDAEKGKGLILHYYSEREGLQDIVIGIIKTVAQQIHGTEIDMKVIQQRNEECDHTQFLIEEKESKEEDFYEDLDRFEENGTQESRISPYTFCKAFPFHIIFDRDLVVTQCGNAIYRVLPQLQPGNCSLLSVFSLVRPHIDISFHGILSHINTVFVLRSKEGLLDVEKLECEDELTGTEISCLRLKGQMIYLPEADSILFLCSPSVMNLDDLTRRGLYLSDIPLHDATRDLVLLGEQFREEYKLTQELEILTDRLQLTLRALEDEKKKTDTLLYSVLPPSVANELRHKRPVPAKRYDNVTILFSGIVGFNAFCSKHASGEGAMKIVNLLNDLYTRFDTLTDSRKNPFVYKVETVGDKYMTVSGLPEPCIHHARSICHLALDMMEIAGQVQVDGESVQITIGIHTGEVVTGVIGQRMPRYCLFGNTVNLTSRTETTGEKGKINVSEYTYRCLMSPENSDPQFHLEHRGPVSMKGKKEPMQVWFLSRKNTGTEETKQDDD
quantityKind: EC50

compound | observed
Cc1cc(C2CCN(C(=O)C3CC3)CC2)ccc1CC1CCc2cccc(-c3cccc(-n4ncc(C(=O)O)c4C)n3)c21 (single isomer, unassigned; (+)) | < 0.5 nM
CCc1cc(OC2CCc3cccc(-c4cccc(-n5ncc(C(=O)O)c5CC)n4)c32)ccc1C1CCN(C(=O)C2CC2)CC1 (single isomer, unassigned; (+)) | < 0.5 nM
CCc1cc(NC2CCc3cccc(-c4cccc(-n5ncc(C(=O)O)c5CC)n4)c32)ccc1C1=CCN(C(=O)C2CC2)CC1 (single isomer, unassigned; (+)) [reference compound] | < 0.5 nM
CCc1cc(C[C@H]2CCc3cccc(-c4cccc(-n5ncc(C(=O)O)c5OC)c4)c32)ccc1C1CCN(C(=O)C2CC2)CC1 [Example 1A] | < 0.6 nM
CCc1cc(O[C@H]2CCc3cccc(-c4cccc(-n5ncc(C(=O)O)c5OC)c4)c32)ccc1C1CCN(C(=O)C2CC2)CC1 [Example 5] | < 0.5 nM

###

EC50 for assorted molecules
target: soluble guanylate cyclase (GUCYA3/GUCYB3) overexpressed in CHO cells (Homo sapiens, UniProt Q02108+Q02153); construct: expressed in transfected cells; assay: CHO cellular assay (cGMP production, HTRF); assay type: cell-based; settings: CHO cellular assay, as repeated in Table 2; read-out: EC50 from biological Example #1

molecule | EC50
CCc1cc(N[C@H]2CCc3cccc(-c4cccc(-n5ncc(C(=O)O)c5OC)c4)c32)ccc1C1CCN(C(=O)C2CC2)CC1 [Example 3A] | < 0.5 nM
Cc1cc(C2CCN(C(=O)[C@H](C)O)CC2)ccc1NC1CCc2cccc(-c3cccc(-n4ncc(C(=O)O)c4C)n3)c21 (single isomer, unassigned; (+)) [reference compound] | < 0.5 nM
CCc1cc(NC2CCc3cccc(-c4cccc(-n5ncc(C(=O)O)c5OC)c4)c32)ccc1C1CCN(C(=O)[C@H](C)O)CC1 (single isomer, unassigned; (+)) [Example 4A] | < 0.5 nM
CCc1cc(NC2CCc3cccc(-c4cccc(-n5ncc(C(=O)O)c5N)n4)c32)ccc1C1CCN(C(=O)C2CC2)CC1 (single isomer, unassigned; (+)) [Example 18A] | 7 nM
Cc1cc(C2CCN(C(=O)C3CC3)CC2)ccc1NC1CCc2cccc(-c3cccc(-n4ncc(C(=O)O)c4C)c3)c21 (single isomer, unassigned; (+)) [reference compound] | < 0.5 nM

###

molecular target: soluble guanylate cyclase (GUCYA3/GUCYB3) overexpressed in CHO cells (Homo sapiens, UniProt Q02108+Q02153); construct: expressed in transfected cells; assay: CHO cellular assay (cGMP production, HTRF); type: cell-based; conditions: CHO GUCY clone 8E10; assay buffer with 1 mM IBMX, 20 uM ODQ; 1 h at room temperature; cGMP HTRF; quantification limit 0.0005 μM; read-out: Mean EC50
pEC50: −log10 of the molar value.

molecule | pEC50
CCc1cc(C[C@H]2CCc3cccc(-c4cccc(-n5ncc(C(=O)O)c5OC)n4)c32)ccc1C1CCN(C(=O)C2CC2)CC1 | > 9.30
CCc1cc(C[C@@H]2CCc3cccc(-c4cccc(-n5ncc(C(=O)O)c5OC)c4)c32)ccc1C1CCN(C(=O)C2CC2)CC1 | 7.80
CCc1cc(C[C@H]2CCc3cccc(-c4cccc(-n5ncc(C(=O)O)c5OC)c4)c32)ccc1C1CCN(C(=O)[C@H](C)O)CC1 | > 9.30
CCc1cc(O[C@H]2CCc3cccc(-c4cccc(-n5ncc(C(=O)O)c5OC)n4)c32)ccc1C1CCN(C(=O)C2CC2)CC1 | > 9.30
CCc1nc(NC2CCc3cccc(-c4cccc(-n5ncc(C(=O)O)c5OC)n4)c32)ccc1C1=CCN(C(=O)C2CC2)CC1 (single isomer, unassigned; (+)) [Example 16A] | > 9.30
CCc1cc(NC2CCc3cccc(-c4cccc(-n5ncc(C(=O)O)c5N)n4)c32)ccc1C1CCN(C(=O)C2CC2)CC1 (single isomer, unassigned; (+)) [Example 18A] | 8.15
CCc1cc(C[C@H]2CCc3cccc(-c4cccc(-n5ncc(C(=O)O)c5NC)c4)c32)ccc1C1CCN(C(=O)C2CC2)CC1 | > 9.30

###

biological target: soluble guanylate cyclase (GUCYA3/GUCYB3) overexpressed in CHO cells (Homo sapiens, UniProt Q02108+Q02153); construct: expressed in transfected cells; assay: CHO cellular assay (cGMP production, HTRF); assay type: cell-based; settings: CHO GUCY clone 8E10; assay buffer with 1 mM IBMX, 20 uM ODQ; 1 h at room temperature; cGMP HTRF; quantification limit 0.0005 μM; read-out: Mean EC50
Each record is given True if its reported EC50 is strictly below 50 nM. Records at or above 50 nM are given False.

molecule | assignedCategory
CCc1cc(NC2CCc3cccc(-c4cccc(-n5ncc(C(=O)O)c5N)c4)c32)ccc1C1CCN(C(=O)C2CC2)CC1 (single isomer, unassigned; (+)) [Example 9A] | True
CCc1cc(C[C@H]2CCc3cccc(-c4cccc(-n5ncc(C(=O)O)c5N)c4)c32)ccc1C1CCN(C(=O)C2CC2)CC1 | True
CCc1cc(N[C@H]2CCc3cccc(-c4cccc(-n5ncc(C(=O)O)c5OC)c4)c32)ccc1C1CCN(C(=O)C2CC2)CC1 | True
CCc1nc(NC2CCc3cccc(-c4cccc(-n5ncc(C(=O)O)c5NC)c4)c32)ccc1C1=CCN(C(=O)C2CC2)CC1 (single isomer, unassigned; (-)) [Example 22B] | True
CCc1nc(NC2CCc3cccc(-c4cccc(-n5ncc(C(=O)O)c5OC)n4)c32)ccc1C1=CCN(C(=O)[C@H](C)O)CC1 (single isomer, unassigned) [Example 17A] | False
CCc1cc(NC2CCc3cccc(-c4cccc(-n5ncc(C(=O)O)c5NC)c4)c32)ccc1C1CCN(C(=O)C2CC2)CC1 (single isomer, unassigned; enantiomer-1) [Example 12A] | False
CCc1cc(NC2CCc3cccc(-c4cccc(-n5ncc(C(=O)O)c5N)c4)c32)ccc1C1CCN(C(=O)C2CC2)CC1 (single isomer, unassigned; (-)) [Example 9B] | False
CCc1cc(O[C@H]2CCc3cccc(-c4cccc(-n5ncc(C(=O)O)c5OC)c4)c32)ccc1C1CCN(C(=O)C2CC2)CC1 | True
CCc1cc(N[C@@H]2CCc3cccc(-c4cccc(-n5ncc(C(=O)O)c5OC)c4)c32)ccc1C1CCN(C(=O)C2CC2)CC1 | True

All figures here come from patent US10316020B2.
